- System: SN12C renal
- PROTOCOL_NOTES: NCI tumour cell line growth inhibition, 48 h; in the data active = GI50 below about 0.43 µM; inactive = the rest
Classes used: 1 (yes) = active, 0 (no) = inactive

>>> cat("COc1ccc2c(c1)C(=O)c1c-2c(OCCN(C)C)nc2cc(OC)ccc12")
"0 (no)"
>>> cat("CSC1=Nc2c(c(C)c(-c3ccccc3)n2CCCCl)C2=NC(=O)CN12")
"0 (no)"
>>> cat("COc1ccccc1-c1ccc2nc(NC(=O)Nc3cc(C(F)(F)F)cc(C(F)(F)F)c3)sc2c1")
"0 (no)"
>>> cat("COc1cc(CNc2nc3cc(N)cc(N)c3nc2-c2ccccc2)cc(OC)c1OC")
"0 (no)"
>>> cat("COc1cc2cn3c4ccc(O)cc4nc(N)c3c2cc1OC")
"1 (yes)"

The measured values listed here are drawn from PubChem BioAssay (NCI).
